# Tested on: T47D
# experimental.details: Growth inhibition of human T47D cells at 10 uM after 48 hrs by sulforhodamine B assay
# Type: functional, cell-based
Calls of active or inactive are those of the source. The rule behind the calls is not given here.
Reply using exactly one outcome from 1.0 (active), 0.0 (inactive)

Example cases with answers are listed next.
[[record]]
record_smiles = "O=C1/C(=C\\c2cccn2C(=O)c2ccc(Cl)cc2)c2ccccc2N1c1c(Cl)cccc1Cl"
label_class = 0.0

[[record]]
record_smiles = "O=C1/C(=C\\c2cccn2C(=O)c2ccc(Cl)s2)c2ccccc2N1c1c(Cl)cccc1Cl"
label_class = 0.0

[[record]]
record_smiles = "O=C1/C(=C\\c2cccn2Cc2ccccc2)c2ccccc2N1c1c(Cl)cccc1Cl"
label_class = 1.0

[[record]]
record_smiles = "O=C1/C(=C\\c2ccc[nH]2)c2ccccc2N1c1c(Cl)cccc1Cl"
label_class = 0.0

[[record]]
record_smiles = "Cc1ccc(S(=O)(=O)n2cccc2/C=C2\\C(=O)N(c3c(Cl)cccc3Cl)c3ccccc32)cc1"
label_class = 0.0


Hello, I am checking results. What call was entered for `O=C1/C(=C\c2cccn2C(=O)c2ccccc2)c2ccccc2N1c1c(Cl)cccc1Cl` ?
0.0

Which outcome did this test record for the compound `O=C1/C(=C\c2cccn2Cc2ccc(Cl)cc2)c2ccccc2N1c1c(Cl)cccc1Cl` ?
0.0

For `O=C1/C(=C\c2cccn2Cc2ccc(F)cc2)c2ccccc2N1c1c(Cl)cccc1Cl` , which call appears in the assay record?
0.0

This collection of values is drawn from ChEMBL document CHEMBL4177730.
